test system: HeLa; assay: Antiproliferative activity against human HeLa cells assessed as […] cell proliferation at 10 uM incubated for 48 hrs in presence of 15 uM of CDDP by WST-1 assay relative to control; type: functional
# key: entry, value: Activity
RECORDED ENDPOINT: Activity (%)

> print(dat)
                                smiles.entry  tested.target  recorded.endpoint  value
 1  CC(C)S(=O)(=O)c1ccc(-c2cnc3[nH]cc(CN4CCc5ccccc5C4)c3c2)cc1           HeLa           Activity     62
 2  CCN1CCN(C(=O)c2cc3cc(-c4ccc(S(C)(=O)=O)cc4)cnc3[nH]2)CC1           HeLa           Activity     58
 3  CC(C)S(=O)(=O)c1ccc(-c2cnc3[nH]nc(C(=O)N4CCc5ccccc5C4)c3c2)cc1           HeLa           Activity     61
 4  CC(C)S(=O)(=O)c1ccc(-c2cnc3[nH]cc(C(=O)N4CCC(c5ccccc5)CC4)c3c2)cc1           HeLa           Activity     28
 5  CC(C)S(=O)(=O)c1ccc(-c2cc(C(=O)NCc3ccccc3)n[nH]2)cc1           HeLa           Activity     68
 6  CC(C)S(=O)(=O)c1ccc(-c2cc(C(=O)Nc3ccc(N(C)C)cc3)n[nH]2)cc1           HeLa           Activity     65
 7  CS(=O)(=O)c1ccc(-c2cnc3[nH]cc(C(=O)N4CCC(c5ccccc5)CC4)c3c2)cc1           HeLa           Activity     44
 8  CC(C)S(=O)(=O)c1ccc(-c2cnc3[nH]cc(C(=O)Nc4ccc(N(C)C)cc4)c3c2)cc1           HeLa           Activity     59
 9  CC(C)S(=O)(=O)c1ccc(-c2cnc3[nH]c(C(=O)Nc4ccccc4)cc3c2)cc1           HeLa           Activity     65
10  CCN(CC)c1ccc(CNC(=O)c2cc(-c3ccc(S(=O)(=O)C(C)C)cc3)[nH]n2)cc1           HeLa           Activity     62
11  CS(=O)(=O)c1ccc(-c2cnc3[nH]cc(C(=O)NCc4ccccc4)c3c2)cc1           HeLa           Activity     64
12  CC(C)S(=O)(=O)c1ccc(-c2cc(C(=O)Nc3ccccc3)n[nH]2)cc1           HeLa           Activity     70
13  CS(=O)(=O)c1ccc(-c2cnc3[nH]c(C(=O)NCc4ccccc4)cc3c2)cc1           HeLa           Activity     72
14  CC(C)S(=O)(=O)c1ccc(-c2cc(-c3nnc(-c4ccccc4)o3)n[nH]2)cc1           HeLa           Activity     64
15  CC(C)S(=O)(=O)c1ccc(-c2cnc3[nH]nc(C(=O)N4CCC(c5ccccc5)CC4)c3c2)cc1           HeLa           Activity     49
16  CCN1CCN(C(=O)c2cc(-c3ccc(S(C)(=O)=O)cc3)[nH]n2)CC1           HeLa           Activity     65
17  CCN(CC)c1ccc(CNC(=O)c2cc3cc(-c4ccc(S(=O)(=O)C(C)C)cc4)cnc3[nH]2)cc1           HeLa           Activity     57
18  CCN(CC)c1ccc(CNC(=O)c2c[nH]c3ncc(-c4ccc(S(C)(=O)=O)cc4)cc23)cc1           HeLa           Activity     59
19  CCN1CCN(C2CCN(C(=O)c3c[nH]c4ncc(-c5ccc(S(=O)(=O)C(C)C)cc5)cc34)CC2)CC1           HeLa           Activity     62

Origin of the recorded values: ChEMBL document CHEMBL5113478
